Tested on: Escherichia coli ATCC 25922
Assay: ATP Assay (viability at 3 hours), Table 6
Assay type: cell-based
Details: 3 h, 5 μg/mL
Procedure: Bacteria (Escherichia coli ATCC 25922, Pseudomonas aeruginosa ATCC 27853, Staphylococcus aureus ATCC29213, and Staphylococcus epidermidis JCM 2414) were inoculated to Mueller-Hinton broth: MHB or LB medium, and cultured at a temperature and period suited for each strain. […] Then an aliquot having a volume (10 to 50 μL) appropriate to each strain was inoculated to a fresh liquid medium and cultured for 4 to 6 hours, followed by the measurement of the absorbance at 600 nm. […]
No end group written: not given here.
For each entry below, report its Escherichia coli ATP (viability, relative value to negative control) value.

Reported Escherichia coli ATCC 25922 Escherichia coli ATP (viability, relative value to negative control) for item GRLKRLGERLKRKIQKWIRW-NH2 [SRP-22] was 4.5

Reported Escherichia coli ATCC 25922 Escherichia coli ATP (viability, relative value to negative control) for item GRLKRMGERLKRKIQKLIRL-NH2 [SRP-21] was 3.7

Reported Escherichia coli ATCC 25922 Escherichia coli ATP (viability, relative value to negative control) for item RLKRMRKRLKRKLRLW-NH2 [SRP-17] was 0.4

Reported Escherichia coli ATCC 25922 Escherichia coli ATP (viability, relative value to negative control) for item GRLKRLGKRLKRKIQKLARL-NH2 [SRP-32] was 7.0

Reported Escherichia coli ATCC 25922 Escherichia coli ATP (viability, relative value to negative control) for item GRLKRVGERLKRKIQKWIRW-NH2 [SRP-23] was 2.8

Reported Escherichia coli ATCC 25922 Escherichia coli ATP (viability, relative value to negative control) for item RLGERLKRKIQKLIRL-NH2 [SRP-31] was 27.4

Reported Escherichia coli ATCC 25922 Escherichia coli ATP (viability, relative value to negative control) for item RLKRLGERLKRKIQKLI-NH2 [SRP-35] was 3.6

Reported Escherichia coli ATCC 25922 Escherichia coli ATP (viability, relative value to negative control) for item GRLKRMGKRLKRKIQKWARW-NH2 [SRP-14] was 1.2

Reported Escherichia coli ATCC 25922 Escherichia coli ATP (viability, relative value to negative control) for item IFLHRLKRMRKRLKRKLRLW-OH [SRP-7] was 1.6

Reported Escherichia coli ATCC 25922 Escherichia coli ATP (viability, relative value to negative control) for item KRLGERLKRKIQKLIRL-NH2 [SRP-30] was 19.9

Reported Escherichia coli ATCC 25922 Escherichia coli ATP (viability, relative value to negative control) for item RLKRLGERLKRKIQKLIRL-NH2 [SRP-28] was 7.1

Reported Escherichia coli ATCC 25922 Escherichia coli ATP (viability, relative value to negative control) for item LKLIFLHRLKRMRKRLKRKL-NH2 [SRP-11] was 3.8

Reported Escherichia coli ATCC 25922 Escherichia coli ATP (viability, relative value to negative control) for item KLIFLRELRRLRKRLKRKLR-NH2 [SRP-16] was 0.9

* * *

system: Enterobacter cloacae JCM 1232; format: cell-based; conditions: Table 4; two tests, first/second value where not identical
No end group written: not given here.
measured-property: MIC Enterobacter cloacae

Form field MIC Enterobacter cloacae, entry MLKLIFLHRLKRMRKRLKRK-NH2 [SRP-10] : 64/128

Form field MIC Enterobacter cloacae, entry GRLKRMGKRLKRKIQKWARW-NH2 [SRP-14] : 32/128

Form field MIC Enterobacter cloacae, entry RLKRMRKRLKRKLRLW-NH2 [SRP-17] : 128< mg/mL

Form field MIC Enterobacter cloacae, entry KLIFLHRLKRELRKRLKRKLR-NH2 [SRP-13] : 32/64

Form field MIC Enterobacter cloacae, entry KNLRRIIRKIIHIIKKYG-NH2 [Ovispirin-1, reference compound] : 32/64

Form field MIC Enterobacter cloacae, entry GRLKRMGERLKRKIQKWIRW-NH2 [SRP-15] : 16/32

Form field MIC Enterobacter cloacae, entry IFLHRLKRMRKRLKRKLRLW-OH [SRP-7] : 16/128

Form field MIC Enterobacter cloacae, entry MLKLIFLHRLKRMRKRLKRKLR-NH2 [SRP-9] : 16/64

Form field MIC Enterobacter cloacae, entry LKLIFLHRLKRMRKRLKRKL-NH2 [SRP-11] : 128< mg/mL

Form field MIC Enterobacter cloacae, entry RLKRMRKRLKRKLRLWHRKRYK-NH2 [SRP-8] : 128< mg/mL

Form field MIC Enterobacter cloacae, entry LIFLHRLKRMRKRLKRKLRL-NH2 [SRP-12] : 128< mg/mL

* * *

Test system: Pseudomonas aeruginosa ATCC 27853
Experiment: ATP Assay (viability at 3 hours), Table 6
Format: cell-based
Details: 3 h, 5 μg/mL
Procedure: Bacteria (Escherichia coli ATCC 25922, Pseudomonas aeruginosa ATCC 27853, Staphylococcus aureus ATCC29213, and Staphylococcus epidermidis JCM 2414) were inoculated to Mueller-Hinton broth: MHB or LB medium, and cultured at a temperature and period suited for each strain. […] Then an aliquot having a volume (10 to 50 μL) appropriate to each strain was inoculated to a fresh liquid medium and cultured for 4 to 6 hours, followed by the measurement of the absorbance at 600 nm. […]
No end group written: not given here.
measured-property: Pseudomonas aeruginosa ATP (viability, relative value to negative control)
Returns: the value as a bare number; no unit string appended.

Form field Pseudomonas aeruginosa ATP (viability, relative value to negative control), entry GRLKRLGERLKRKIQKLIRL-NH2 [SRP-27] : 2.1

Form field Pseudomonas aeruginosa ATP (viability, relative value to negative control), entry GRLKRLGKRLKRKIQKLARL-NH2 [SRP-32] : 1.6

Form field Pseudomonas aeruginosa ATP (viability, relative value to negative control), entry LKLIFLHRLKRMRKRLKRKL-NH2 [SRP-11] : 0.8

* * *

System: Staphylococcus aureus ATCC29213
Assay: ATP Assay (viability at 3 hours), Table 6
Format: cell-based
Settings: 3 h, 5 μg/mL
Method: Bacteria (Escherichia coli ATCC 25922, Pseudomonas aeruginosa ATCC 27853, Staphylococcus aureus ATCC29213, and Staphylococcus epidermidis JCM 2414) were inoculated to Mueller-Hinton broth: MHB or LB medium, and cultured at a temperature and period suited for each strain. […] Then an aliquot having a volume (10 to 50 μL) appropriate to each strain was inoculated to a fresh liquid medium and cultured for 4 to 6 hours, followed by the measurement of the absorbance at 600 nm. […]
No end group written: not given here.
For each entry below, report its Staphylococcus aureus ATP (viability, relative value to negative control) value.
Returns: the value as a bare number; no unit string appended.

Reported Staphylococcus aureus ATCC29213 Staphylococcus aureus ATP (viability, relative value to negative control) for item GRLKRLGERLKRKIQKWIRW-NH2 [SRP-22] was 5.0

Reported Staphylococcus aureus ATCC29213 Staphylococcus aureus ATP (viability, relative value to negative control) for item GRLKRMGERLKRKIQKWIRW-NH2 [SRP-15] was 0.3

Reported Staphylococcus aureus ATCC29213 Staphylococcus aureus ATP (viability, relative value to negative control) for item RLKRLGERLKRKIQKL-NH2 [SRP-36] was 3.6

Reported Staphylococcus aureus ATCC29213 Staphylococcus aureus ATP (viability, relative value to negative control) for item GRLKRLGERLKRKIQKLIRL-NH2 [SRP-27] was 3.2

Reported Staphylococcus aureus ATCC29213 Staphylococcus aureus ATP (viability, relative value to negative control) for item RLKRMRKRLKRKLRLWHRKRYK-NH2 [SRP-8] was 0.4

Reported Staphylococcus aureus ATCC29213 Staphylococcus aureus ATP (viability, relative value to negative control) for item LKLIFLHRLKRMRKRLKRKL-NH2 [SRP-11] was 0.3

Reported Staphylococcus aureus ATCC29213 Staphylococcus aureus ATP (viability, relative value to negative control) for item RLKRLGERLKRKIQKLIR-NH2 [SRP-34] was 2.6

Reported Staphylococcus aureus ATCC29213 Staphylococcus aureus ATP (viability, relative value to negative control) for item MLKLIFLHRLKRMRKRLKRK-NH2 [SRP-10] was 0.2

Reported Staphylococcus aureus ATCC29213 Staphylococcus aureus ATP (viability, relative value to negative control) for item KLIFLHRLKRELRKRLKRKLR-NH2 [SRP-13] was 2.0

Reported Staphylococcus aureus ATCC29213 Staphylococcus aureus ATP (viability, relative value to negative control) for item GRLKRLGKRLKRKIQKLARL-NH2 [SRP-32] was 5.2

Reported Staphylococcus aureus ATCC29213 Staphylococcus aureus ATP (viability, relative value to negative control) for item RLKRMRKRLKRKLRLW-NH2 [SRP-17] was 0.3

Reported Staphylococcus aureus ATCC29213 Staphylococcus aureus ATP (viability, relative value to negative control) for item KRLGERLKRKIQKLIRL-NH2 [SRP-30] was 6.3

Reported Staphylococcus aureus ATCC29213 Staphylococcus aureus ATP (viability, relative value to negative control) for item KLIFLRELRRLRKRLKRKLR-NH2 [SRP-16] was 0.4

Data origin: patent US8470765B2
